subject-of-test: human mAChR M1 (Homo sapiens)
assay-details: mAChR M1 cell-based functional assay (calcium mobilization), agonist mode: compound alone, Emax relative to acetylcholine maximum
measurement-parameters: human mAChR M1
parameter: EC50 (µM)

smiles-data: [2H]C1([2H])c2ncccc2C(=O)N1Cc1c(F)cc(-c2ccc(O[C@@H]3CCOC3)c3nn(C)cc23)cc1F
parameter: EC50
unit-annotation: µM
value-prefix: =
reading: 7.92
//
smiles-data: [2H]C1([2H])c2ncccc2C(=O)N1Cc1c(F)cc(-c2ccc(OC)c3nn(C([2H])([2H])[2H])cc23)cc1F
parameter: EC50
unit-annotation: µM
value-prefix: >
reading: 10
//
smiles-data: [2H]C1([2H])c2ncccc2C(=O)N1Cc1c(F)cc(-c2cn(C)c(=O)c3nn(C)cc23)cc1F
parameter: EC50
unit-annotation: µM
value-prefix: ≥
reading: 10
//
smiles-data: [2H]C1([2H])c2ncc(O)cc2C(=O)N1Cc1c(F)cc(-c2cccc3nn(C([2H])([2H])[2H])cc23)cc1F
parameter: EC50
unit-annotation: µM
value-prefix: =
reading: 8.02
//
smiles-data: [2H]C([2H])([2H])Oc1ccc(-c2cc(F)c(CN3C(=O)c4cccnc4C3([2H])[2H])c(F)c2)c2cn(C)nc12
parameter: EC50
unit-annotation: µM
value-prefix: =
reading: 3.3
//
smiles-data: [2H]C1([2H])c2ncccc2C(=O)N1Cc1c(F)cc(-c2ccc(OC(C)C)c3nn(C([2H])([2H])[2H])cc23)cc1F
parameter: EC50
unit-annotation: µM
value-prefix: =
reading: 5.8
//
smiles-data: [2H]C1([2H])c2ncccc2C(=O)N1Cc1ccc(-c2cccc3nn(C([2H])([2H])[2H])cc23)cc1F
parameter: EC50
unit-annotation: µM
value-prefix: >
reading: 10

----------
subject-of-test: human mAChR M1 (Homo sapiens)
Sequence (P11229 1-460): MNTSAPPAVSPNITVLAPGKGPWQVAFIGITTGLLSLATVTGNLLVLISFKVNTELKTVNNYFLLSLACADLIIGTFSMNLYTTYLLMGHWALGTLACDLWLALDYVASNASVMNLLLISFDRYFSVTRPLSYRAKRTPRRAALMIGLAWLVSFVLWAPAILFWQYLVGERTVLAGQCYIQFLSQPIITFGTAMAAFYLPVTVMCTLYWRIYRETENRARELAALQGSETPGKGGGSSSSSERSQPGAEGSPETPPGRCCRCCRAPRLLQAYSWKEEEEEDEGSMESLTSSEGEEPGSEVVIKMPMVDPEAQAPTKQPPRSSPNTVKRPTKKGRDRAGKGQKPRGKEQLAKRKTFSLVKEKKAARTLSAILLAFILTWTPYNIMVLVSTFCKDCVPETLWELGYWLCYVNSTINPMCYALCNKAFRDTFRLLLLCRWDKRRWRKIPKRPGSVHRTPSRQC
assay-details: mAChR M1 cell-based functional assay (calcium mobilization), agonist mode: compound alone, Emax relative to acetylcholine maximum
measurement-parameters: relative to the maximum for acetylcholine
Emax values, listed per item
parameter: Emax (%)

smiles-data: [2H]C1([2H])c2ncccc2C(=O)N1Cc1c(F)cc(-c2ccnc3nn(C)cc23)cc1F
subject-of-test: human mAChR M1 (Homo sapiens)
parameter: Emax
unit-annotation: %
reading: 34
--
smiles-data: [2H]C1([2H])c2ncccc2C(=O)N1Cc1c(F)cc(-c2ccc3nn(C)cc3c2)cc1Cl
subject-of-test: human mAChR M1 (Homo sapiens)
parameter: Emax
unit-annotation: %
reading: 2
--
smiles-data: [2H]C1([2H])c2ncccc2C(=O)N1Cc1c(F)cc(-c2cc(OC)cc3nn(C)cc23)cc1F
subject-of-test: human mAChR M1 (Homo sapiens)
parameter: Emax
unit-annotation: %
reading: 2
--
smiles-data: [2H]C1([2H])c2ncccc2C(=O)N1Cc1c(F)cc(-c2cn(C)c(=O)c3nn(C)cc23)cc1F
subject-of-test: human mAChR M1 (Homo sapiens)
parameter: Emax
unit-annotation: %
reading: 16
